Reported IC50 by item:
Target: UniProt:P10415
Sequence (P10415 whole entry): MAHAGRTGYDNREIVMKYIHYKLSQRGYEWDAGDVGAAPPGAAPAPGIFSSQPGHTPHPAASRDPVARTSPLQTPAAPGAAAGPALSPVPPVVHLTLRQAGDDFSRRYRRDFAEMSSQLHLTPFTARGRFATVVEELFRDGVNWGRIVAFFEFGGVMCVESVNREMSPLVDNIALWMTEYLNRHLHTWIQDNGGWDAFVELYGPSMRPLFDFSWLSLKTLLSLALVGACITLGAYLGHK
Test: SPR (Biacore) solution inhibition assay, BCL-2 binding to BAD peptide surface
Conditions: read-out: BCL2_SPR IC50 BAD

INSERT INTO assay_data (molecule, readout_value) VALUES
  ('CCCCN(CCCC)C(=O)c1cc(C)n(-c2ccc(NS(C)(=O)=O)cc2C(=O)N2Cc3ccccc3C[C@H]2CO)n1', '367 to 387 nM');

Problem: Entry under review: CCCCN(CCCC)C(=O)c1cc(C)n(-c2ccc(NS(=O)(=O)C(C)C)cc2C(=O)N2Cc3ccccc3C[C@H]2CO)n1 . Reported IC50?
Result: 126 to 127 nM

Problem: Entry under review: CCCCN(CCCC)C(=O)c1cc(C)n(-c2ccc(NS(=O)(=O)c3ccccc3)cc2C(=O)N2Cc3ccccc3C[C@H]2CO)n1 (stereo in doubt) . Reported IC50?
Result: 629 to 756 nM
